experiment: Cytotoxicity against LPS-stimulated mouse RAW264.7 cells assessed as cell viability at 1 to 25 uM pretreated for 15 mins before LPS challenge measured after 24 hrs by MTT assay
Assay type: cell-based
conditions: LPS-stimulated RAW264.7 cells, read-out: Activity
viability at 24 h, up to 25 µM values for the compounds below.

# compound, viability at 24 h, up to 25 µM (%)
measured = [
    ("C=C1C[C@@]23CC[C@@H]4[C@](C)(CO)CCC[C@@]4(C)[C@@H]2CC[C@@H]1C3", 80),
    ("C[C@@]1(CO)CCC[C@]2(C)[C@@H]1CC[C@@]13C[C@@H](CC[C@H]12)[C@@](C)(O)C3", 95),
    ("COC(=O)[C@]1(C)CCC[C@@]2(C)[C@@H]3CC[C@@H]4C[C@@]3(CC[C@@H]21)C[C@H]4/C=N/O", 25),
    ("COC(=O)[C@]1(C)CCC[C@@]2(C)[C@@H]3CC[C@@H]4C[C@@]3(CC[C@@H]21)C[C@H]4C [DIHYDRO KAURENOIC ACID METHYL ESTER]", 72),
    ("COC(=O)[C@]1(C)CCC[C@@]2(C)[C@@H]3CC[C@@H]4C[C@@]3(CC[C@@H]21)CC4=O", 98),
    ("COC(=O)[C@]1(C)CCC[C@]2(C)[C@@H]1CC[C@@]13C[C@@H](C[C@@H]4O[C@@]412)[C@]1(CO1)C3", 99),
    ("COC(=O)[C@]1(C)CCC[C@@]2(C)[C@@H]3CC[C@@H]4C[C@@]3(CC[C@@H]21)C[C@]4(C)O", 52),
    ("COC(=O)[C@]1(C)CCC[C@@]2(C)[C@@H]3CC[C@@H]4C[C@@]3(CC[C@@H]21)C(=O)[C@@]41CCN=N1", 48),
    ("COC(=O)[C@]1(C)CCC[C@@]2(C)[C@@H]3CC[C@@H]4C[C@]3(C=C4C=O)CC[C@@H]21", 76),
    ("C=C1C[C@@]23CC[C@H]4[C@@](C)(CCC[C@@]4(C)C(=O)OCc4ccccc4)[C@@H]2CC[C@@H]1C3 [KAURENOIC ACID BENZYL ESTER]", 46),
    ("C=C1[C@@H]2CC[C@H]3[C@]4(C)CCC[C@@](C)(C(=O)Nc5ccccc5)[C@H]4CC[C@]3(C2)[C@H]1OC(C)=O", 85),
    ("C[C@@]12CCC[C@@](C)(C(=O)OCc3ccccc3)[C@H]1CC[C@]13CC(=O)[C@H](CC[C@H]12)C3", 95),
    ("COC(=O)[C@]1(C)CCC[C@@]2(C)[C@@H]3CC[C@@H]4C[C@@]3(CC[C@@H]21)C[C@@]41COS(=O)O1 (some centres undefined)", 95),
    ("C=C1[C@@H]2CC[C@H]3[C@]4(C)CCC[C@@](C)(C(=O)OC)[C@H]4CC[C@]3(C2)[C@H]1O", 97),
]

---

experiment: Cytotoxicity against LPS-stimulated mouse RAW264.7 cells assessed as cell viability at 1 to 25 uM pretreated for 15 mins before LPS challenge measured after 24 hrs by MTT assay
Assay type: cell-based
conditions: LPS-stimulated RAW264.7 cells, read-out: Activity
viability at 24 h, up to 25 µM values for the compounds below.

# compound, viability at 24 h, up to 25 µM [%]
data = [
    ("C=C1C[C@@]23CC[C@H]4[C@@](C)(CCC[C@@]4(C)C(=O)OC)[C@@H]2CC[C@@H]1C3 [KAURENOIC ACID METHYL ESTER]", 90),
    ("C=C1C(=O)[C@@]23CC[C@H]4[C@@](C)(CCC[C@@]4(C)C(=O)OC)[C@@H]2CC[C@@H]1C3", 32),
    ("COC(=O)[C@]1(C)CCC[C@@]2(C)[C@@H]3CC[C@@H]4C[C@]3(C=C4/C=N/O)CC[C@@H]21", 99),
    ("C=C1C[C@@]23CC[C@H]4[C@@](C)(CCC[C@@]4(C)C(=O)OC[Si](C)(C)C)[C@@H]2CC[C@@H]1C3", 95),
    ("C=C1[C@@H]2CC=C3[C@@](CC[C@@H]4[C@](C)(C(=O)OC)CCC[C@@]34C)(C2)[C@H]1OC(C)=O", 50),
    ("C=C1[C@H]2CC3=C([C@H](C2)[C@@H]1O)[C@]1(C)CCC[C@@](C)(C(=O)OC)[C@H]1CC3", 30),
    ("COC(=O)[C@]1(C)CCC[C@@]2(C)[C@@H]3CC[C@@H]4C[C@@]3(CC[C@@H]21)C(=O)OC4=O", 95),
]
